Molecular target: UniProtKB P42338
Experiment: TR-FRET enzymatic activity assay against PI3K isoforms
Conditions: 2×Km ATP, 2 μM PIP2, 30 minutes at 25° C., recombinant heterodimeric PI3Kβ 25-50 pM, read-out: IC50-PIP-Beta
Experimental: The compounds of formula (I) were characterized for their enzymatic activity against the PI3K isoforms. The activities were measured using a time-resolved fluorescence resonance energy transfer (TR-FRET) assay. TR-FRET monitored the formation of 3,4,5-inositol triphosphate molecule that competed with fluorescently labeled PIPS for binding to the GRP-1 pleckstrin homology domain protein. Class I PI3K isoforms were expressed and purified as heterodimeric recombinant proteins. […]
measured_property: IC50 (nM)

Previously resolved entries follow.
> print(dat)
                                   molecule  experimental.system  measured.property  units.label  test.result
1  Cc1nc2c(-c3nnc[nH]3)cc(N3CCOCC3)cc2n1-c1cnc2ccc(Cl)cc2c1     UniProtKB P42338               IC50           nM         4200
2  Cc1nc2c(-c3nnc[nH]3)cc(N3CCOCC3)cc2n1-c1ccc2ccccc2c1     UniProtKB P42338               IC50           nM           38

1: CCCc1nc2c(-c3nnc[nH]3)cc(N3CCOCC3)cc2n1-c1cccc2c(F)cccc12 (single isomer, unassigned) [Compound 6-1]
2: Cc1nnc(-c2cc(N3CCOCC3)cc3c2nc(C)n3-c2cc3ccccc3cn2)[nH]1
3: CCc1nc2c(-c3nnc[nH]3)cc(N3CCOCC3)cc2n1-c1ccc2ccccc2n1
4: Cc1nc2c(-c3nnc[nH]3)cc(N3CCOCC3)cc2n1-c1ccc(F)c2ccccc12
IN: Hello, I need these entries ordered by IC50, highest reading first. Thanks! Returns: the labels arranged in the requested order.
OUT: 2, 3, 1, 4
(2: 3400 nM, 3: 220 nM, 1: 42 nM, 4: 9 nM)

###

Target: UniProtKB P42338
Experiment: TR-FRET enzymatic activity assay against PI3K isoforms
Conditions: 2×Km ATP, 2 μM PIP2, 30 minutes at 25° C., recombinant heterodimeric PI3Kβ 25-50 pM, read-out: IC50-PIP-Beta
pIC50: −log10 of the molar value.
measured_property: pIC50

> print(dat)
                                   compound  experimental.system  test.result
1  Cc1nc2c(-c3nnc[nH]3)cc(N3CCOCC3)cc2n1-c1cc2ccccc2cn1 [Compound 5-14]     UniProtKB P42338         6.24
2  CCCc1nc2c(-c3nnc[nH]3)cc(N3CCOCC3)cc2n1-c1cccc2c(F)cccc12 (single isomer, unassigned) [Compound 6-2]     UniProtKB P42338         8.52

P: Cc1nc2c(C(N)=O)cc(N3CCOCC3)cc2n1-c1ccc(F)c2ccccc12 [Compound 4-1]
Q: Cc1nc2c(-c3nnc[nH]3)cc(N3CCOCC3)cc2n1-c1cnc2cc(Cl)ccc2c1 [Compound 5-5]
IN: Compare P and Q and name the one whose reported pIC50 is smaller. Your choice should be expressed through its label.
OUT: Q
(Q: 5.92, P: 7.06)

###

Target: PI3Kβ (Homo sapiens, UniProt P42338)
Sequence (P42338 whole entry, canonical isoform): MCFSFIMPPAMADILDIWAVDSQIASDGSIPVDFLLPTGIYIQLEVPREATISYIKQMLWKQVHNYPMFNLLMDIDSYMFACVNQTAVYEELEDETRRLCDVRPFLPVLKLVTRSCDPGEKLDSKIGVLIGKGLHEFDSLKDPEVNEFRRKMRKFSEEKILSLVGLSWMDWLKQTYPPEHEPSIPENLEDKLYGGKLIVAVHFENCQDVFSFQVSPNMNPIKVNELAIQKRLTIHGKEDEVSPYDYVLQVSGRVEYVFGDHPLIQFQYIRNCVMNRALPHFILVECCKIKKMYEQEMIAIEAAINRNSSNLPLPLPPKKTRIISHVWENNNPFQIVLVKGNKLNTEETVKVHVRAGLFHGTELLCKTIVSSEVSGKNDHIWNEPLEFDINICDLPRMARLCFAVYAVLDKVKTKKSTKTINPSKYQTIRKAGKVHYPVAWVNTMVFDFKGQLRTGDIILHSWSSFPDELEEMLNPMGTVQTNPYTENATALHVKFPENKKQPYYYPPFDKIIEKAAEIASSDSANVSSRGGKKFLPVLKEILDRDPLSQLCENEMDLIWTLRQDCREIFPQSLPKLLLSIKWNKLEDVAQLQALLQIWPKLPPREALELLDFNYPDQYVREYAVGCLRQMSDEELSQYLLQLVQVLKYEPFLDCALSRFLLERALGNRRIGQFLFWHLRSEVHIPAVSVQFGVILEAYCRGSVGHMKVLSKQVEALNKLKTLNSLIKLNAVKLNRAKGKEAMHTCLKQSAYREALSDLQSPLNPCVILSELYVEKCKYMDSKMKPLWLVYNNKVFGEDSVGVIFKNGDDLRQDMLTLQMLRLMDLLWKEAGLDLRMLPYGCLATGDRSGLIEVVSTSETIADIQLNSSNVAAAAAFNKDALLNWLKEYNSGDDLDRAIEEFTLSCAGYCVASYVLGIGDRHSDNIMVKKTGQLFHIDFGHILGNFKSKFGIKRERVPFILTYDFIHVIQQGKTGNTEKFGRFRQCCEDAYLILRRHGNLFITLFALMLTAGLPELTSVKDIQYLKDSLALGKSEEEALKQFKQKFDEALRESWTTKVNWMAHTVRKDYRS
Sequence (P27986 whole entry partner, canonical isoform): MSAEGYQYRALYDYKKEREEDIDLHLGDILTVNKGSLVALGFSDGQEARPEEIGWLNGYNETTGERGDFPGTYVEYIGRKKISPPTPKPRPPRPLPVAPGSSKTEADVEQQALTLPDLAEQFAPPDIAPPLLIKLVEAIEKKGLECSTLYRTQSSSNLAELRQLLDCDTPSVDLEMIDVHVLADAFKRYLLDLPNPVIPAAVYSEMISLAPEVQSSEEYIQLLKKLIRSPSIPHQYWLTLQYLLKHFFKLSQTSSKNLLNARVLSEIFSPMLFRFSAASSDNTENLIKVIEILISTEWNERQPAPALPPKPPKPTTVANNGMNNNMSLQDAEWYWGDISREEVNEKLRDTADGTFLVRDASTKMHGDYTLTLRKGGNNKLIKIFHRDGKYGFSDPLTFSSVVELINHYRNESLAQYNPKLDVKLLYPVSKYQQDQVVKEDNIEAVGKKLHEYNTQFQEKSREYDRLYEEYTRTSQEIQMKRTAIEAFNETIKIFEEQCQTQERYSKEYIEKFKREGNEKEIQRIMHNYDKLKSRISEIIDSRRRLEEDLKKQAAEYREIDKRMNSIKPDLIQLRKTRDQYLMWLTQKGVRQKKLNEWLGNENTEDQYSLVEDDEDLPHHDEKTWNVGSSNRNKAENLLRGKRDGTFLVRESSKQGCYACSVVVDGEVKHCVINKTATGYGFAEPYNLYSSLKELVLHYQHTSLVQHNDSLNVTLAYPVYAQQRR
Assay: TR-FRET enzymatic activity assay against PI3K isoforms
Settings: 2×Km ATP, 2 μM PIP2, 30 minutes at 25° C., recombinant heterodimeric PI3Kβ 25-50 pM, read-out: IC50-PIP-Beta
pIC50: −log10 of the molar value.
measured_property: pIC50

Please review the entries below; each comes with its answer.
> print(dat)
                                   compound  measured.property  test.result
1  Cc1nc2c(C(N)=O)cc(N3CCOCC3)cc2n1-c1cccc2c(F)cccc12              pIC50         7.89
2  Cc1nc2c(-c3nnc[nH]3)cc(N3CCOCC3)cc2n1-c1cnc2ccccc2c1              pIC50         6.14

a: Fc1cccc2c(-n3cnc4c(-c5nnc[nH]5)cc(N5CCOCC5)cc43)cccc12
b: CCOC(=O)c1nc2c(C(=O)OC)cc(N3CCOCC3)cc2n1-c1cccc2ccccc12
c: CCc1nc2c(-c3nnc[nH]3)cc(N3CCOCC3)cc2n1-c1cnc2ccccc2c1
d: CCCc1nc2c(-c3nnc[nH]3)cc(N3CCOCC3)cc2n1-c1cccc2c(F)cccc12 [Compound 5-11]
e: COC(=O)c1cc(N2CCOCC2)cc2c1ncn2-c1cccc2ccccc12
IN: hey, can you rank those compounds up there by pIC50? biggest number first please Answer format: list of labels, ordered as asked.
OUT: a, d, e, b, c
